biological target: Calcium/calmodulin-dependent protein kinase type II subunit delta (Homo sapiens); conditions: at 1 µM;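 also: mean percent inhibition of CAMK2D, from screening of the GSK Published Kinase Inhibitor Set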
Listed here: items and their measured inhibition.
Reply numerically in %, unit not repeated.

molecule=CC(C)c1ccc2c(c1)NC(=O)/C2=N/Nc1ccc(S(N)(=O)=O)cc1 metric_name=inhibition numeric_readout=0.81
molecule=Nc1nccc(C#Cc2cncnc2Nc2ccc(OCc3cccc(F)c3)c(Cl)c2)n1 metric_name=inhibition numeric_readout=8.79
molecule=C[C@@H](Oc1cc(-n2cnc3ccc(OCC4CCN(C)CC4)cc32)sc1C(N)=O)c1ccccc1C(F)(F)F metric_name=inhibition numeric_readout=49.9
molecule=O=S(=O)(CCOCc1ccc(-c2ccc3ncnc(Nc4ccc(OCc5cccc(F)c5)c(Cl)c4)c3c2)o1)c1ccccc1 metric_name=inhibition numeric_readout=1.29
molecule=CCn1c(-c2nonc2N)nc2ccc(F)cc21 metric_name=inhibition numeric_readout=3.55

I am curious: what inhibition value has been reported for CCCN1CCCC(c2ccc(Nc3nc(Nc4cc(F)ccc4C(N)=O)c4cc[nH]c4n3)c(OC)c2)C1 (stereo unspecified) ?
72.8

Please give the measured inhibition for this molecule: N#Cc1cccc(Nc2nccc(-c3cnn4ncccc34)n2)c1
63.4

State the recorded inhibition for this entry: Cc1cc(-c2ccccn2)cc(C)c1/C=C/c1cncc(-c2nn[nH]n2)c1
5

====

Target: Ephrin type-B receptor 2 (Homo sapiens) (UniProt P29323)
Sequence (whole entry): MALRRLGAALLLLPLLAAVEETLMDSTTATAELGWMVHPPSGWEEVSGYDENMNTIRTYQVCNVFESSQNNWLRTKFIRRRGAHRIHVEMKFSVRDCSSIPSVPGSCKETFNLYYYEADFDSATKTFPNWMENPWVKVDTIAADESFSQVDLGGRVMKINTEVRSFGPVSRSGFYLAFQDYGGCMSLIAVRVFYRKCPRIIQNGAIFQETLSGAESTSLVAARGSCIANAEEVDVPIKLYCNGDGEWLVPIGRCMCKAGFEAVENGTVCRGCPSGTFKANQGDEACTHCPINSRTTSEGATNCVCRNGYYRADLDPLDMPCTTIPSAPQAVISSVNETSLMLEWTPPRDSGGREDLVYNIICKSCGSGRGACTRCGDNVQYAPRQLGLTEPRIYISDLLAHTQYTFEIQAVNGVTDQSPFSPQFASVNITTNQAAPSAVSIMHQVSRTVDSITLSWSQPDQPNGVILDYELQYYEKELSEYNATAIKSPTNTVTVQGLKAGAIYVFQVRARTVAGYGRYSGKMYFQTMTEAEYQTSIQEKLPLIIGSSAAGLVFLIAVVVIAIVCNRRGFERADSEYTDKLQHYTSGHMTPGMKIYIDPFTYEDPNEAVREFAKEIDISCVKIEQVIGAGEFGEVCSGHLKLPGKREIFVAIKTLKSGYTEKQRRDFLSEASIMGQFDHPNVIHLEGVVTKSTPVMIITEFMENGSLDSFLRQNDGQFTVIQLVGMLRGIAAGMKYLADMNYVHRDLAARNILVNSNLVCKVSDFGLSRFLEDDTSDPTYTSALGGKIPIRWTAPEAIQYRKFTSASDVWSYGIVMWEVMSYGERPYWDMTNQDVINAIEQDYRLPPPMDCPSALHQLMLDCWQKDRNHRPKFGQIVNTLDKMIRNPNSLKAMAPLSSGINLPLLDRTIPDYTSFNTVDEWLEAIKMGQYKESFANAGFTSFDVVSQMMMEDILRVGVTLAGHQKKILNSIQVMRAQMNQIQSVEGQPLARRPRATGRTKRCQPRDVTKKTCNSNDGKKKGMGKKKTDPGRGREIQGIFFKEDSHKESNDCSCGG
Conditions: at 0.1 µM
Measured inhibition of individual entries
Write the number in % without appending the unit.

Example entries and their recorded answers appear below.
compound=N#Cc1c(NC(=O)c2ccccc2F)sc2c1CCCC2 target="Ephrin type-B receptor 2 (Homo sapiens) (UniProt P29323)" metric_name=inhibition numeric_readout=-7.95
compound=c1ccc(Nc2ncc(-c3ccccc3)o2)cc1 target="Ephrin type-B receptor 2 (Homo sapiens) (UniProt P29323)" metric_name=inhibition numeric_readout=7.58
compound=ON=C1CCc2cc(-c3nc(C4CCNCC4)[nH]c3-c3ccncc3)ccc21 target="Ephrin type-B receptor 2 (Homo sapiens) (UniProt P29323)" metric_name=inhibition numeric_readout=-5.22

Please state recorded inhibition (tested on Ephrin type-B receptor 2 (Homo sapiens) (UniProt P29323)) of CCS(=O)(=O)c1ccc(OC)c(Nc2ncc(-c3cccc(OC)c3)o2)c1
9.46

What inhibition appears in the records for this compound with Ephrin type-B receptor 2 (Homo sapiens) (UniProt P29323)? Nc1nccc(C#Cc2cncnc2Nc2ccc(OCc3cccc(F)c3)c(Cl)c2)n1
9.67

Entry COc1cccc(-n2ncc3c(N/N=C/c4ccc(C)cc4)ncnc32)c1 , system Ephrin type-B receptor 2 (Homo sapiens) (UniProt P29323): what inhibition was measured?
6.77

Recorded inhibition for COc1ccc2ncnc(Nc3ccc(OCc4ccccc4)cc3)c2c1 with Ephrin type-B receptor 2 (Homo sapiens) (UniProt P29323), please?
3.16

Request: inhibition, test system Ephrin type-B receptor 2 (Homo sapiens) (UniProt P29323), entry CCCN1CCCC(c2ccc(Nc3nc(Nc4cc(F)ccc4C(N)=O)c4cc[nH]c4n3)c(OC)c2)C1 (stereo not given)
8.14

Record lookup: for Ephrin type-B receptor 2 (Homo sapiens) (UniProt P29323), what inhibition belongs to Cc1ccc(NC(=O)CC2CC2)cc1-c1ccc(C(=O)NCC2CC2)cc1 ?
6.33

Please tell me: inhibition of CN(c1ccc(NC(=O)Nc2ccc(OC(F)(F)F)cc2)cc1)c1ccnc(Nc2cccc(S(N)(=O)=O)c2)n1 , system Ephrin type-B receptor 2 (Homo sapiens) (UniProt P29323)?;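 also: reported as mean inhibition of EPHB2, from the GSK PKIS dataset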
10.9

What measured inhibition is associated with N#Cc1cccc(Nc2nccc(-c3cnn4ncccc34)n2)c1 on Ephrin type-B receptor 2 (Homo sapiens) (UniProt P29323)?
15.1
